# tested on: PDK1 (Homo sapiens)
# Construct: His6 (N)
# Sequence (O15530 51-556 limits assumed): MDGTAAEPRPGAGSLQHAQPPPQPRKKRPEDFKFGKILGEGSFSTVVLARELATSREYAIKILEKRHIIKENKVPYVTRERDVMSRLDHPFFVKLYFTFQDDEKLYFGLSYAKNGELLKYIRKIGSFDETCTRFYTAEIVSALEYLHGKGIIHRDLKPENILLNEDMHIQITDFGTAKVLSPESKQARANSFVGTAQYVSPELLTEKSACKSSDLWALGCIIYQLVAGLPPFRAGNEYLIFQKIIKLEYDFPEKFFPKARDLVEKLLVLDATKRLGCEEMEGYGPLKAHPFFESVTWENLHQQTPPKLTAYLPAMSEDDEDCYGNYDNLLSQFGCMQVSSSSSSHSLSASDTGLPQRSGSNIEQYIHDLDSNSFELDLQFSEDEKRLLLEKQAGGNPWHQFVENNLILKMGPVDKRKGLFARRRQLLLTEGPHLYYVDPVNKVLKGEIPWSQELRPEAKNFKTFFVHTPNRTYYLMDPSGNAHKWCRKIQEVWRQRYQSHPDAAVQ
# measurement notes: Test for the inhibition of PDK1 (flashplate, 33P-ATP)
# measurement parameters: His6-PDK1 (1-50) 3.4 nM, 4 μM ATP, 30° C., 60 min; read-out: IC50 [PDK1] biochemical
pIC50: −log10 of the molar value.
reported endpoint: pIC50

Example entries begin here.
Cn1cc(-c2cnc3[nH]cc(-c4cc(C(C)(O)c5ccccc5)on4)c3c2)cn1 (stereo not drawn) ... 6.00 to 9.30
Cn1cc(-c2cnc3[nH]cc(-c4n[nH]c(C(C)(O)c5cccc(F)c5F)n4)c3c2)cn1 (stereo not drawn) ... 6.00 to 9.30
Cn1cc(-c2cnc3[nH]cc(-c4nc(C(C)(O)c5ccccc5Cl)no4)c3c2)cn1 (stereo not drawn) ... 5.00 to 6.00
Cn1cc(-c2cnc3[nH]cc(-c4csc(Cc5cccc(F)c5F)n4)c3c2)cn1 ... 5.00 to 6.00
Cn1cc(-c2cnc3[nH]cc(-c4nnc([C@@H](O)c5ccccc5Cl)o4)c3c2)cn1 (single isomer, unassigned) ... 6.00 to 9.30

For the next question, use this molecule.
Req: Dear colleague, please send me the reported pIC50 for Cn1cc(-c2cnc3[nH]cc(-c4nnc(C(C)(O)c5ccccc5)o4)c3c2)cn1 (stereo not drawn) when you can.
Resp: 6.00 to 9.30

* * *

# tested on: PDK1 (Homo sapiens, UniProt O15530)
# Construct: His6 (N)
# measurement notes: Test for the inhibition of PDK1 (flashplate, 33P-ATP)
# measurement parameters: His6-PDK1 (1-50) 3.4 nM, 4 μM ATP, 30° C., 60 min; read-out: IC50 [PDK1] biochemical
IC50: recorded values

Example entries begin here.
Cn1cc(-c2cnc3[nH]cc(-c4nnc([C@H](N)c5ccccc5)o4)c3c2)cn1 [A108] ... 0.0005 to 1 µM
Cn1cc(-c2cnc3[nH]cc(-c4nnc(C(O)c5ccc(F)cc5)o4)c3c2)cn1 (centres unmarked) [A57] ... 0.0005 to 1 µM
Cn1cc(-c2cnc3[nH]cc(-c4nnc(C(O)c5ccccc5F)o4)c3c2)cn1 (centres unmarked) [A43] ... 0.0005 to 1 µM
CCC(O)(c1cccc(F)c1)c1cc(-c2c[nH]c3ncc(-c4cnn(C)c4)cc23)no1 (centres unmarked) [A11] ... 0.0005 to 1 µM
Cn1cc(-c2cnc3[nH]cc(-c4cc([C@](C)(O)c5ccccc5)on4)c3c2)cn1 (single isomer, unassigned) [A35] ... 0.0005 to 1 µM
Cn1cc(-c2cnc3[nH]cc(-c4nnc(C(O)c5cccc(F)c5)o4)c3c2)cn1 (centres unmarked) [A47] ... 0.0005 to 1 µM
Cn1cc(-c2cnc3[nH]cc(-c4cc(C(O)c5ccccc5)n(C)n4)c3c2)cn1 (centres unmarked) [A84] ... 0.0005 to 1 µM
Cn1cc(-c2cnc3[nH]cc(-c4cc(C(O)(c5ccccc5)C5CCOCC5)[nH]n4)c3c2)cn1 (centres unmarked) [A101] ... 0.0005 to 1 µM
Cn1cc(-c2cnc3[nH]cc(-c4n[nH]c(Cc5cccc(F)c5F)n4)c3c2)cn1 [A16] ... 0.0005 to 1 µM
Cn1cc(-c2cnc3[nH]cc(-c4nnc(C(O)c5cccc(Cl)c5Cl)o4)c3c2)cn1 (centres unmarked) [A65] ... 0.0005 to 1 µM

Req: Dear colleague, please send me the reported IC50 for Cn1cc(-c2cnc3[nH]cc(-c4nnc(C(N)c5ccccc5Cl)o4)c3c2)cn1 (centres unmarked) [A118] when you can.
Resp: 0.0005 to 1 µM

Req: Dear colleague, please send me the reported IC50 for Cn1cc(-c2cnc3[nH]cc(-c4n[nH]c(C5(c6ccc(Cl)nc6)CC5)n4)c3c2)cn1 [A122] when you can.
Resp: 1 to 10 µM

Req: Dear colleague, please send me the reported IC50 for Cn1cc(-c2cnc3[nH]cc(-c4noc(C(O)c5ccccc5)n4)c3c2)cn1 (centres unmarked) [A23] when you can.
Resp: 0.0005 to 1 µM

Req: Dear colleague, please send me the reported IC50 for C=C(c1ccccc1)c1cc(-c2c[nH]c3ncc(-c4cnn(C)c4)cc23)nn1CCO [A69] when you can.
Resp: 1 to 10 µM

Req: Dear colleague, please send me the reported IC50 for Cn1cc(-c2cnc3[nH]cc(-c4cc(C(C)(O)c5ccccc5F)[nH]n4)c3c2)cn1 (centres unmarked) [A18] when you can.
Resp: 0.0005 to 1 µM

Req: Dear colleague, please send me the reported IC50 for Cn1cc(-c2cnc3[nH]cc(-c4nnc([C@H](N)c5ccccc5Cl)o4)c3c2)cn1 [A112] when you can.
Resp: 0.0005 to 1 µM
